Listed variants paired with reported protein stability index
B1: TEKT4 (parent)
chain: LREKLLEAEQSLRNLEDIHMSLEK

# Variants of: B1
# measurement.protocol: protein stability index of a GFP-peptide fusion (GPS, HEK-293T) (PSI 1-6); higher = more stable;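 further: lentivirally expressed fusions sorted by FACS into six bins by GFP to DsRed ratio, PSI derived from sequencing read proportions per bin multiplied by bin number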
# condition.description: c terminus: a fixed tail appended
API note: the answer field is a bare number with no unit suffix.

Solved entries (count: 5):
Q: Reported protein stability index, variant E7F : ____
Ans: 2.5

Q: Reported protein stability index, variant E9G : ____
Ans: 2.89

Q: Reported protein stability index, variant R2Y : ____
Ans: 2.05

Q: Reported protein stability index, variant L5Y : ____
Ans: 3.86

Q: Reported protein stability index, variant E7N : ____
Ans: 2.39

Others:
Q: Reported protein stability index, variant S21E : ____
Ans: 2.35

Q: Reported protein stability index, variant L5Q : ____
Ans: 5.21

Q: Reported protein stability index, variant E16Q : ____
Ans: 2.15

Q: Reported protein stability index, variant L1G : ____
Ans: 4.38

Q: Reported protein stability index, variant E9S : ____
Ans: 2.61

Q: Reported protein stability index, variant L5T : ____
Ans: 4.67
